IC50: recorded values
tested on: H358. non-small cell lung cancer line bearing KRas^G12C oncogenic mutation; assay: Antiproliferative MTS assay, H358 cells; type: cell-based; settings: Homo sapiens, NCI-H358, 72 h, compounds 1-23, 47-52 and Reference Example 1 median of experiments, 24-46 estimations and/or preliminary results, read-out: IC50 values: cell proliferation inhibition, H358

                                   molecule     result
0  COc1cc2c(cc1OCCc1cc(O)cc(Cl)c1)C(c1ccc(C)cc1C)N(C(=O)NCc1cocn1)CC2 (stereo not shown)  > 2000 nM
1  COc1cc(CCOc2cc3c(cc2OC)CCN(C(=O)NCc2cocn2)C3c2ccc(Cl)cc2C)ccc1N (stereo not shown)     400 nM
2  CCNC(=O)N1CCc2cc(OC)c(OCCc3ccc(OC)c(N)c3)cc2C1c1ccc(C(F)(F)F)cc1C (stereo not shown)     300 nM

Lookup: IC50 / H358. non-small cell lung cancer line bearing KRas^G12C oncogenic mutation / COc1ccc(CCOc2cc3c(cc2OC)CCN(C(=O)NCC(F)(F)F)C3c2ccc(C(F)(F)F)cc2C)cc1N (stereo not shown) 600 nM

====

system: H358. non-small cell lung cancer line bearing KRas^G12C oncogenic mutation; experiment: Antiproliferative MTS assay, H358 cells; type: cell-based; conditions: Homo sapiens, NCI-H358, 72 h, compounds 1-23, 47-52 and Reference Example 1 median of experiments, 24-46 estimations and/or preliminary results, read-out: IC50 values: cell proliferation inhibition, H358
IC50: recorded values
A complete answer gives the number and then names the unit.

>>> print(df.to_string())
                                   compound                                    system  result
0  CCNC(=O)N1CCc2cc(OC)c(OCCc3ccc(N)c(OC)c3)cc2C1c1ccc(C)cc1C (stereo not drawn) [Compound 9]  H358. non-small cell lung cancer line bearing KRas^G12C oncogenic mutation  0.4 µM
1  COc1cc(CCOc2cc3c(cc2OC)CCN(C(=O)NCC(F)(F)F)C3c2ccc(C(F)(F)F)cc2C)ccc1N (stereo not drawn) [Compound 44]  H358. non-small cell lung cancer line bearing KRas^G12C oncogenic mutation  0.8 µM

Now let's try a different one.
Item under review: COc1ccc(CCOc2cc3c(cc2OC)CCN(C(=O)NCc2cocn2)C3c2ccc(C)cc2C)cc1O (stereo not drawn) [Compound 2] . Reported IC50? 0.4 µM
